Test: Inhibitory activity against influenza A sialidase (Aichi)
pIC50: −log10 of the molar value.
Assign Condition met to entries whose pIC50 meets or exceeds 8; assign Condition not met to the rest.

// known answers, use as guide
[[record]]
smilesstructure = "CCCN(CCc1ccccc1)C(=O)[C@@H]1OC(C(=O)O)=C[C@H](N)[C@H]1NC(=O)C(F)(F)F"
classlabel = "Condition met"

[[record]]
smilesstructure = "CCCN(CCC)C(=O)[C@@H]1OC(C(=O)O)=C[C@H](NC)[C@H]1NC(C)=O"
classlabel = "Condition not met"

[[record]]
smilesstructure = "CCCN(CCc1ccccc1)C(=O)[C@@H]1OC(C(=O)O)=C[C@H](N)[C@H]1NC(=O)C1CC1"
classlabel = "Condition not met"


Task item: API: above_or_equal(metric=pIC50, cutoff=8) for item CCCN(CCC)C(=O)[C@@H]1OC(C(=O)O)=C[C@H](N)[C@H]1NC(=O)C(F)(F)F
Reply: Condition met

Task item: API: above_or_equal(metric=pIC50, cutoff=8) for item CCCN(CCC)C(=O)[C@@H]1OC(C(=O)O)=C[C@H](N)[C@H]1NC(=O)CC
Reply: Condition met

Task item: API: above_or_equal(metric=pIC50, cutoff=8) for item CCCN(CCC)C(=O)[C@@H]1OC(C(=O)O)=C[C@H](N)[C@H]1NC(=O)C(C)C
Reply: Condition not met

Task item: API: above_or_equal(metric=pIC50, cutoff=8) for item CCCN(CCc1ccccc1)C(=O)[C@@H]1OC(C(=O)O)=C[C@H](N)[C@H]1NC(=O)CC
Reply: Condition met

* * *

Assay: Inhibitory activity against influenza A sialidase (Aichi)
Exam item: assign true to entries whose IC50 is below 400 nM and false to entries at or above 400 nM. Note that a value of exactly 400 nM receives false.

[[record]]
smilesstructure = "CCCN(CCC)C(=O)[C@@H]1OC(C(=O)O)=C[C@H](NCC)[C@H]1NC(C)=O"
classlabel = "false"

[[record]]
smilesstructure = "CCCC(=O)N[C@@H]1[C@@H](N)C=C(C(=O)O)O[C@H]1C(=O)N(CCC)CCc1ccccc1"
classlabel = "false"

[[record]]
smilesstructure = "CCCN(CCc1ccccc1)C(=O)[C@@H]1OC(C(=O)O)=C[C@@H](O)[C@H]1NC(C)=O"
classlabel = "true"

[[record]]
smilesstructure = "CCCN(CCC)C(=O)[C@@H]1OC(C(=O)O)=C[C@H](N)[C@H]1NS(C)(=O)=O"
classlabel = "false"


Task item: For this molecule, is IC50 lower than 400 nM? CCCN(CCC)C(=O)[C@@H]1OC(C(=O)O)=C[C@@H](N)[C@H]1NC(C)=O
Reply: true
